Molecular target: T1, human GIP receptor (human, UniProt P48546 22-466)
T1 sequence (looked up): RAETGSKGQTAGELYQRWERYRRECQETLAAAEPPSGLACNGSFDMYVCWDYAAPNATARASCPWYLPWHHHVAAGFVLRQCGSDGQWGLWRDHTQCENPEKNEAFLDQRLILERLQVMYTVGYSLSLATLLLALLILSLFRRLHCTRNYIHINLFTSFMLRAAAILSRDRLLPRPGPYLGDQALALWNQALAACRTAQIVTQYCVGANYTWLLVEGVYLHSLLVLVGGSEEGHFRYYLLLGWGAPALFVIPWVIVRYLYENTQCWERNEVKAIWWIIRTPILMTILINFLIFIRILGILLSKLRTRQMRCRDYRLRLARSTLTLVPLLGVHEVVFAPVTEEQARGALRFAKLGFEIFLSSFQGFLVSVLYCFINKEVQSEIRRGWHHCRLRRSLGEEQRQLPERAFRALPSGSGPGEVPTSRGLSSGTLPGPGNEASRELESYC
Assay: cell-based or functional assay
*1 amine or outer side, *2 acyl side, *3 side chain or, on linkers, in order; H or OH if unused. Where no end group is shown, it is not given here. Side-chain parts run from the residue outwards. [ ]: non-standard residue; d: D form. The star is where a group is joined. αMePhe(2-F) = C[C@](N)(Cc1ccccc1F)C(=O)O; γGlu = O=C(O)[C@H](CCC(=O)[*:2])N[*:1]; C14 diacid = O=C(O)CCCCCCCCCCCCC(=O)*; αMeY = C[C@](N)(Cc1ccc(O)cc1)C(=O)O; αMeL = CC(C)C[C@](C)(N)C(=O)O; Orn = NCCC[C@H](N)C(=O)O; AEEA = NCCOCCOCC(=O)O; Aib = CC(C)(N)C(=O)O
Use EC50, cAMP to assign classes; range list: bottom: < 10 pM; middle: ≥ 10 pM and < 20 pM; top: ≥ 20 pM

As a guide, the following entries are already answered.
[[record]]
binder = "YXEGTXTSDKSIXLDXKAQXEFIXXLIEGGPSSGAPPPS (Aib2, αMeF(2F)6, αMeL13, Orn16, Aib20, D-Glu24, αMeY25, K10 and K17: K(AEEA2-(γ-Glu)-CO-(CH2)14-CH3), C-terminal NH2) [Example 29]"
assigned_label = "bottom"

[[record]]
binder = "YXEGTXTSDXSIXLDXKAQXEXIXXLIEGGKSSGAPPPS (Aib2, αMeF(2F)6, 4Pal10, αMeL13, Orn16, Aib20, 3ClPhe22, D-Glu24, αMeY25, K17 and K31: K(AEEA2-(γ-Glu)-CO-(CH2)12-CO2H), C-terminal NH2) [Example 62]"
assigned_label = "top"

[[record]]
binder = "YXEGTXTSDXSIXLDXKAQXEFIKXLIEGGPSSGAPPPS (Aib2, αMeF(2F)6, 4Pal10, αMeL13, Orn16, Aib20, αMeY25, K17 and K24: K(AEEA2-CO-(CH2)12-CO2H), C-terminal NH2) [Example 81]"
assigned_label = "middle"

[[record]]
binder = "YXEGTXTSDXSIXLDXKAQXEFIEKLIEGGPSSGAPPPS (Aib2, αMeF(2F)6, 4Pal10, αMeL13, Orn16, Aib20, K17 and K25: K(AEEA2-(γ-Glu)-(4-(4-tert-butylphenyl)butanoyl)), C-terminal NH2) [Example 68]"
assigned_label = "middle"

[[record]]
binder = "Y[Aib]EGT[αMePhe(2-F)]TSDK([AEEA-AEEA-γGlu-C14 diacid])SI[αMeL]LD[Orn]IAQ[Aib]EFIK([AEEA-AEEA-γGlu-C14 diacid])[αMeY]LIEGGPSSGAPPPS-NH2 [Example 106]"
assigned_label = "top"

[[record]]
binder = "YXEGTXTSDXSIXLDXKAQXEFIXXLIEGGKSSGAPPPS (Aib2, αMeF(2F)6, 4Pal10, αMeL13, Orn16, Aib20, D-Glu24, αMeY25, K17 and K31: K(AEEA2-(εK)-(γ-Glu)-CO-(CH2)12-CO2H), C-terminal NH2) [Example 34]"
assigned_label = "middle"

[[record]]
binder = "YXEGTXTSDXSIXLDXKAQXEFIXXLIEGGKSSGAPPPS (Aib2, αMeF(2F)6, Nle10, αMeL13, Orn16, Aib20, D-Glu24, αMeY25, K17 and K31: K(AEEA2-(γ-Glu)-CO-(CH2)12-CO2H), C-terminal NH2) [Example 60]"
assigned_label = "middle"

[[record]]
binder = "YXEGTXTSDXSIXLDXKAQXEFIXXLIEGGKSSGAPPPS (Aib2, αMeF(2F)6, 1Nal10, αMeL13, Orn16, Aib20, D-Glu24, αMeY25, K17 and K31: K(AEEA2-(γ-Glu)-CO-(CH2)12-CO2H), C-terminal NH2) [Example 56]"
assigned_label = "middle"

[[record]]
binder = "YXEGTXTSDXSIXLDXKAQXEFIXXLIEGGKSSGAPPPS (Aib2, αMeF6, 4Pal10, αMeL13, Orn16, Aib20, D-Glu24, αMeY25, K17 and K31: K(AEEA2-(γ-Glu)-CO-(CH2)12-CO2H), C-terminal NH2) [Example 44]"
assigned_label = "top"

[[record]]
binder = "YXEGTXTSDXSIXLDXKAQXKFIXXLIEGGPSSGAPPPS (Aib2, αMeF(2F)6, 4Pal10, αMeL13, Orn16, Aib20, D-Glu24, αMeY25, K17 and K21: K(AEEA2-(γ-Glu)-CO-(CH2)10-CH3), C-terminal NH2) [Example 137]"
assigned_label = "middle"


Attention now shifts to the item below.
Consider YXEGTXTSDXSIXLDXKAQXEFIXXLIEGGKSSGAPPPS (Aib2, αMeF(2F)6, 4Pal10, αMeL13, Orn16, Aib20, D-Glu24, αMeY25, K17 and K31: K(AEEA-(γ-Glu)-CO-(CH2)10-CH3), C-terminal NH2) [Example 14] . To which EC50, cAMP class does it belong?
bottom

Values compiled from patent US20230265151A1.
